# System: 317291-083-R-J1-PDC complex spheroid growth
# assayOverview: Anticancer human tumor 317291-083-R-J1-PDC patient-derived soft tissue sarcoma cell line growth inhibition [Asc]
# runConditions: second compound 0.949 µM; first compound 0.1 µM; stronger effect = lower value
recordedEndpoint: viability, T/C (%)
Numbers only; they are read as %.

C=CC(=O)N1CCN(c2nc(=O)n(-c3c(C)ccnc3C(C)C)c3nc(-c4c(O)cccc4F)c(F)cc23)C(C)C1 (stereo not given) + CCN1C(C(=O)NC23CCC(C(=O)O)(CC2)CC3)C(c2cccc(Cl)c2F)C2(C(=O)Nc3cc(Cl)ccc32)C12CCCCC2	84.7
NC1CCC(NC2CC2c2ccccc2)CC1 (stereo not given) + CCN1C(C(=O)NC23CCC(C(=O)O)(CC2)CC3)C(c2cccc(Cl)c2F)C2(C(=O)Nc3cc(Cl)ccc32)C12CCCCC2	106
Cn1ncnc1[C@H]1c2n[nH]c(=O)c3cc(F)cc(c23)N[C@@H]1c1ccc(F)cc1 + CCN1C(C(=O)NC23CCC(C(=O)O)(CC2)CC3)C(c2cccc(Cl)c2F)C2(C(=O)Nc3cc(Cl)ccc32)C12CCCCC2	72.1

Asked: Given the compound CCN1CCN(Cc2ccc(Nc3ncc(F)c(-c4cc(F)c5nc(C)n(C(C)C)c5c4)n3)nc2)CC1 + CCN1C(C(=O)NC23CCC(C(=O)O)(CC2)CC3)C(c2cccc(Cl)c2F)C2(C(=O)Nc3cc(Cl)ccc32)C12CCCCC2 , write its reported viability, T/C.
Given back: 91.1

Asked: Provide one value: measured viability, T/C of COc1c(OCCCN2CCOCC2)ccc2c3n(c(=NC(=O)c4cnc(N)nc4)nc12)CCN3 + CCN1C(C(=O)NC23CCC(C(=O)O)(CC2)CC3)C(c2cccc(Cl)c2F)C2(C(=O)Nc3cc(Cl)ccc32)C12CCCCC2
Given back: 58.5

====

# IC50 annotations
# System: 317291-083-R-J1-PDC complex spheroid growth
# assayOverview: Anticancer human tumor 317291-083-R-J1-PDC cell line growth inhibition [Asc];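 note: compound exposure lasted seven days after spheroids formed for three days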
# runConditions: curve of first compound; second compound 0.316 µM
# Description: Multicellular complex tumor spheroid response to apoptosis pathway targeting inhibitors Alrizomadlin, Pelcitoclax, and Dasminapant in combination with a variety of drugs and investigational agents in selected tumor cell lines […] Compounds. […] If the clinical Cmax for an agent had not been determined, the highest concentration tested was 10 microM. […]

Examples with their reported IC50 follow.
Cc1nc(N2CCC3(CC2)COC(C)C3N)c(CO)nc1Sc1ccnc(N)c1Cl (centres undefined) + CNC(C)C(=O)NC1CN(S(=O)(=O)c2cccc(S(=O)(=O)N3CCC4CCC(C(=O)NC(c5ccccc5)c5ccccc5)N4C(=O)C(NC(=O)C(C)NC)C3)c2)CCC2CCC(C(=O)NC(c3ccccc3)c3ccccc3)N2C1=O	< 9.49 nM
C=C(F)C(=O)N1CCN(c2nc(OCC3CCCN3C)nc3c2CCN(c2cccc4cccc(Cl)c24)C3)CC1CC#N (centres undefined) + CNC(C)C(=O)NC1CN(S(=O)(=O)c2cccc(S(=O)(=O)N3CCC4CCC(C(=O)NC(c5ccccc5)c5ccccc5)N4C(=O)C(NC(=O)C(C)NC)C3)c2)CCC2CCC(C(=O)NC(c3ccccc3)c3ccccc3)N2C1=O	< 31.6 nM
CCN1CCN(Cc2ccc(Nc3ncc(F)c(-c4cc(F)c5nc(C)n(C(C)C)c5c4)n3)nc2)CC1 + CNC(C)C(=O)NC1CN(S(=O)(=O)c2cccc(S(=O)(=O)N3CCC4CCC(C(=O)NC(c5ccccc5)c5ccccc5)N4C(=O)C(NC(=O)C(C)NC)C3)c2)CCC2CCC(C(=O)NC(c3ccccc3)c3ccccc3)N2C1=O	18.1 nM

Asked: Output IC50 of COc1c(OCCCN2CCOCC2)ccc2c3n(c(=NC(=O)c4cnc(N)nc4)nc12)CCN3 + CNC(C)C(=O)NC1CN(S(=O)(=O)c2cccc(S(=O)(=O)N3CCC4CCC(C(=O)NC(c5ccccc5)c5ccccc5)N4C(=O)C(NC(=O)C(C)NC)C3)c2)CCC2CCC(C(=O)NC(c3ccccc3)c3ccccc3)N2C1=O
Given back: 43 nM

====

# System: 317291-083-R-J1-PDC complex spheroid growth
# assayOverview: Anticancer human tumor 317291-083-R-J1-PDC cell line growth inhibition [Asc];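 note: compound exposure lasted seven days after spheroids formed for three days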;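 for viability, T/C: 100% = DMSO vehicle control wells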
# runConditions: second compound 0.0316 µM; first compound 0.00316 µM; stronger effect = lower value
recordedEndpoint: viability, T/C (%)
Provide the reading as a plain figure in %.

# annotated cases, reported viability, T/C shown
CCN1CCN(Cc2ccc(Nc3ncc(F)c(-c4cc(F)c5nc(C)n(C(C)C)c5c4)n3)nc2)CC1 + CNC(C)C(=O)NC1CN(S(=O)(=O)c2cccc(S(=O)(=O)N3CCC4CCC(C(=O)NC(c5ccccc5)c5ccccc5)N4C(=O)C(NC(=O)C(C)NC)C3)c2)CCC2CCC(C(=O)NC(c3ccccc3)c3ccccc3)N2C1=O	80.3
O=C(c1ccc(F)c(F)c1Nc1ccc(I)cc1F)N1CC(O)([C@@H]2CCCCN2)C1 + CNC(C)C(=O)NC1CN(S(=O)(=O)c2cccc(S(=O)(=O)N3CCC4CCC(C(=O)NC(c5ccccc5)c5ccccc5)N4C(=O)C(NC(=O)C(C)NC)C3)c2)CCC2CCC(C(=O)NC(c3ccccc3)c3ccccc3)N2C1=O	92
COc1c(OCCCN2CCOCC2)ccc2c3n(c(=NC(=O)c4cnc(N)nc4)nc12)CCN3 + CNC(C)C(=O)NC1CN(S(=O)(=O)c2cccc(S(=O)(=O)N3CCC4CCC(C(=O)NC(c5ccccc5)c5ccccc5)N4C(=O)C(NC(=O)C(C)NC)C3)c2)CCC2CCC(C(=O)NC(c3ccccc3)c3ccccc3)N2C1=O	76.5
NC1CCC(NC2CC2c2ccccc2)CC1 (configuration not stated) + CNC(C)C(=O)NC1CN(S(=O)(=O)c2cccc(S(=O)(=O)N3CCC4CCC(C(=O)NC(c5ccccc5)c5ccccc5)N4C(=O)C(NC(=O)C(C)NC)C3)c2)CCC2CCC(C(=O)NC(c3ccccc3)c3ccccc3)N2C1=O	77
Cn1ncnc1[C@H]1c2n[nH]c(=O)c3cc(F)cc(c23)N[C@@H]1c1ccc(F)cc1 + Cc1c(S(C)(=O)=O)c(-c2cc(F)cc(N3CCN(c4ccc(NS(=O)(=O)c5ccc(NC(CCN6CCC(C(=O)OCCCP(=O)(O)O)CC6)CSc6ccccc6)c(S(=O)(=O)C(F)(F)F)c5)cc4)CC3)c2)c(-c2ccc(Cl)cc2)n1C(C)C	78.4

Asked: Give viability, T/C for the following compound: NC1CCC(NC2CC2c2ccccc2)CC1 (configuration not stated) + Cc1c(S(C)(=O)=O)c(-c2cc(F)cc(N3CCN(c4ccc(NS(=O)(=O)c5ccc(NC(CCN6CCC(C(=O)OCCCP(=O)(O)O)CC6)CSc6ccccc6)c(S(=O)(=O)C(F)(F)F)c5)cc4)CC3)c2)c(-c2ccc(Cl)cc2)n1C(C)C
Given back: 98.2

Asked: Supply recorded viability, T/C for CNC(C)C(=O)NC1CN(S(=O)(=O)c2cccc(S(=O)(=O)N3CCC4CCC(C(=O)NC(c5ccccc5)c5ccccc5)N4C(=O)C(NC(=O)C(C)NC)C3)c2)CCC2CCC(C(=O)NC(c3ccccc3)c3ccccc3)N2C1=O (configuration not stated) + Cc1c(S(C)(=O)=O)c(-c2cc(F)cc(N3CCN(c4ccc(NS(=O)(=O)c5ccc(NC(CCN6CCC(C(=O)OCCCP(=O)(O)O)CC6)CSc6ccccc6)c(S(=O)(=O)C(F)(F)F)c5)cc4)CC3)c2)c(-c2ccc(Cl)cc2)n1C(C)C here.
Given back: 121

====

# Tested on: 317291-083-R-J1-PDC complex spheroid growth
# assayOverview: Anticancer human tumor 317291-083-R-J1-PDC cell line growth inhibition [Asc];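 note: compound exposure lasted seven days after spheroids formed for three days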;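 for viability, T/C: 100% = DMSO vehicle control wells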
# runConditions: second compound 3.16 µM; first compound 0.0316 µM; stronger effect = lower value
Reported viability, T/C is given for each of the following molecules.

Asked: Look up and report measured viability, T/C for this entry: Cn1ncnc1[C@H]1c2n[nH]c(=O)c3cc(F)cc(c23)N[C@@H]1c1ccc(F)cc1 + Cc1c(S(C)(=O)=O)c(-c2cc(F)cc(N3CCN(c4ccc(NS(=O)(=O)c5ccc(NC(CCN6CCC(C(=O)OCCCP(=O)(O)O)CC6)CSc6ccccc6)c(S(=O)(=O)C(F)(F)F)c5)cc4)CC3)c2)c(-c2ccc(Cl)cc2)n1C(C)C
Given back: 57.5%

Asked: Give reported viability, T/C value for C=CC(=O)N1CCN(c2nc(=O)n(-c3c(C)ccnc3C(C)C)c3nc(-c4c(O)cccc4F)c(F)cc23)C(C)C1 (configuration not stated) + Cc1c(S(C)(=O)=O)c(-c2cc(F)cc(N3CCN(c4ccc(NS(=O)(=O)c5ccc(NC(CCN6CCC(C(=O)OCCCP(=O)(O)O)CC6)CSc6ccccc6)c(S(=O)(=O)C(F)(F)F)c5)cc4)CC3)c2)c(-c2ccc(Cl)cc2)n1C(C)C
Given back: 82.4%

Asked: In one line, give reported viability, T/C of the entry C=C(F)C(=O)N1CCN(c2nc(OCC3CCCN3C)nc3c2CCN(c2cccc4cccc(Cl)c24)C3)CC1CC#N (configuration not stated) + Cc1c(S(C)(=O)=O)c(-c2cc(F)cc(N3CCN(c4ccc(NS(=O)(=O)c5ccc(NC(CCN6CCC(C(=O)OCCCP(=O)(O)O)CC6)CSc6ccccc6)c(S(=O)(=O)C(F)(F)F)c5)cc4)CC3)c2)c(-c2ccc(Cl)cc2)n1C(C)C .
Given back: 100%
